A set of compounds tested on human autotaxin (ATX) (Homo sapiens (Human)), with measured pIC50:
pIC50: −log10 of the molar value.

Sample Cc1c(Sc2cccc(C(=O)O)c2)c2ccc(Cl)c(F)c2n1CC(=O)N1CC(C)(O)C1 [Compound 1-52] ; pIC50 observed: ≥ 6.30

Sample Cc1c(Sc2cccc(C(=O)O)c2)c2ccc(Cl)c(F)c2n1CC(=O)N1CC2(CC2)c2cc(F)ccc21 [Compound 1-32] ; pIC50 observed: ≥ 6.30

Sample Cc1c(Sc2cccc(C(=O)O)c2)c2ccc(Cl)c(F)c2n1CC(=O)N1CCC(Cc2ccc(F)cc2)C1 (single isomer, unassigned; enantiomer a) [Compound 1-65] ; pIC50 observed: ≥ 6.30
